Origin of the recorded values: ChEMBL document CHEMBL1159200

Measured pIC50 by item
- test system: Human immunodeficiency virus type 1 integrase (Human immunodeficiency virus 1, UniProt Q7ZJM1)
- Sequence (Q7ZJM1 whole entry): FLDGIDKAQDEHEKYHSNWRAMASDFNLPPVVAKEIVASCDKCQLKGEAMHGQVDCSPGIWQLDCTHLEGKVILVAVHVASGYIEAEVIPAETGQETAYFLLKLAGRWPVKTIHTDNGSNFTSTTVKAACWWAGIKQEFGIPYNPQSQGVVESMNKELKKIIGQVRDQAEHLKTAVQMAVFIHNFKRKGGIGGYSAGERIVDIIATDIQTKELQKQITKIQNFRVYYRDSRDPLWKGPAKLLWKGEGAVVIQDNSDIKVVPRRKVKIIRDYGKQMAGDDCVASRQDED
- procedure summary: Inhibition of HIV1 recombinant integrase expressed in Escherichia coli
In plain terms, pIC50 is the concentration in mol/L turned into minus its base-10 logarithm.

Please review the following examples before continuing.
compound: O=C(OC[C@H]1O[C@@H](Oc2c(-c3ccc(O)c(O)c3)oc3cc(O)cc(O)c3c2=O)[C@H](OC(=O)c2cc(O)c(O)c(O)c2)[C@@H](O)[C@H]1O)c1cc(O)c(O)c(O)c1
pIC50: 4.50
--
compound: COC(=O)c1cc(O)c(O)c(O)c1
pIC50: 3.81
--
compound: O=C(OC[C@H]1O[C@@H](OC(=O)c2cc(O)c(O)c(O)c2)[C@H](OC(=O)c2cc(O)c(O)c(O)c2)[C@@H](OC(=O)c2cc(O)c(O)c(O)c2)[C@@H]1OC(=O)c1cc(O)c(O)c(O)c1)c1cc(O)c(O)c(O)c1
pIC50: 4.53

Exercise: GET /values?readout=pIC50&item= O=c1c(O[C@@H]2O[C@H](CO)[C@H](O)[C@H](O)[C@H]2O)c(-c2ccc(O)c(O)c2)oc2cc(O)cc(O)c12 [HYPEROSIDE]
Solution: 3.86

Exercise: Given C[C@@H]1O[C@@H](Oc2c(-c3ccc(O)c(O)c3)oc3cc(O)cc(O)c3c2=O)[C@H](O)[C@H](O)[C@H]1O , state its recorded pIC50.
Solution: 3.78

====

- test system: Human immunodeficiency virus type 1 integrase (Human immunodeficiency virus 1)
- procedure summary: Inhibition of HIV1 recombinant integrase expressed in Escherichia coli
measured parameter: IC50

// below: answered compounds
entry smiles: O=C(OC[C@H]1O[C@@H](OC(=O)c2cc(O)c(O)c(O)c2)[C@H](OC(=O)c2cc(O)c(O)c(O)c2)[C@@H](O)[C@@H]1O)c1cc(O)c(O)c(O)c1
IC50: 44.5 µM
--
entry smiles: O=C(O[C@H]1[C@H](Oc2c(-c3ccc(O)c(O)c3)oc3cc(O)cc(O)c3c2=O)OC[C@H](O)[C@@H]1O)c1cc(O)c(O)c(O)c1
IC50: 30.9 µM

Now for the compound whose IC50 we want.
Exercise: Please look up its IC50: O=C(O[C@H]1[C@H](Oc2c(-c3ccc(O)c(O)c3)oc3cc(O)cc(O)c3c2=O)O[C@H](CO)[C@H](O)[C@@H]1O)c1cc(O)c(O)c(O)c1
Solution: 45.3 µM
